These data points were gathered from patent EP4745156A1.

EXPERIMENTAL SYSTEM: His-tagged canine IL-31 (interleukin 31) recombinant protein (canine)
MEASUREMENT DESCRIPTION: BLI (Gator), biotinylated antibody on streptavidin probe, canine IL-31 as analyte
Please go through the items and note down their koff.

Hi! Can you tell me koff for each of these binders?
1. 6465-H2K2-canIgGB (antibody, V domains shown) VH: EVQLVESGGDLVKPGGSLRLSCVASGYSFTNYYLYWVRQAPGKGLQWLGELNPRNGGTNLNAKFKTRFTISVDKAKNTAYLQMNSLRAEDTAVYYCTRGGTTVVVRDVMDFWGQGTLVTVSS VL: DIVLTQTPLSLSVSPGEPASISCRASESVDSYGNSFMHWYRQKPGQSPQLLIYRASNLESGVPDRFSGSGSRTDFTLRISRVEADDAGVYYCQQSNEDPYTFGQGTKLEIKR
2. 7475-H2K2-canIgGB (antibody, V domains shown) VH: EVQLVESGGDLVKPGGSLRLSCVASGFTFSSYAMSWIRQAPGKGLQWVAYISNGGDYIFYADTVKGRFTISRDNAKNTLYLQMNSLRAEDTAVYYCTRRGHYNTSSYWYFDVWGQGTLVTVSS VL: EIVMTQSPASLSLSQEEKVTITCKASENVGTYVSWYQQKPGQAPKLLIYGASNRYTGVPSRFSGSGSATDFTLTISSVEPEDVAVYYCGQSYSYPPTFGAGTKVELKR
3. 6465-mHvKv-canIgGB (antibody, V domains shown) VH: EVQLQQSGAELVRPGASVRLSCKASGYSFTNYYLYWVKQRPGQGLEWIGELNPRNGGTNLNAKFKTKATLTVDKSSNTAYMRLSSLTSEDSAVYYCTRGGTTVVVRDVMDFWGQGTSVTVSS VL: DIELTQSPASLAVSLGQRATISCRASESVDSYGNSFMHWYQQKPGQPPKLLIYRASNLESGIPARFSGSGSRTDFTLTINPVEADDVATYYCQQSNEDPYTFGGGTKLEIKR

["0.00166 s⁻¹", "0.000481 s⁻¹", "0.00106 s⁻¹"]

Hi! Can you tell me koff for each of these binders?
1. 7475-H3K1-canIgGB (antibody, V domains shown) VH: EVQLVESGGDLVKPGGSLRLSCVASGFTFSSYAMSWVRQAPGKGLQWVARISNGGDYIFYADTVKGRFTISRDNAKNTLYLQMNSLRAEDTAMYYCTRRGHYNTSSYWYFDVWGQGTLVTVSS VL: EIVMTQSPASLSLSQEEKVTITCKASENVGTYVSWYQQKPGQAPKLLIYGASNRYTGVPSRFSGSGSGTDFTFTISSLEPEDVAVYYCGQSYSYPPTFGAGTKVELKR
2. 7475-H2K3-canIgGB (antibody, V domains shown) VH: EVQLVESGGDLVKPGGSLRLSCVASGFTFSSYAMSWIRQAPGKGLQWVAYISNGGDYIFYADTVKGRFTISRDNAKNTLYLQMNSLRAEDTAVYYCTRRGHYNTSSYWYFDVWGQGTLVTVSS VL: EIVMTQSPASLSLSQEEKVTITCKASENVGTYVSWYQQKPGQAPKLLIYGASNRYTGVPSRFSGSGSGTDFSFTISSLEPEDVAVYYCGQSYSYPPTFGAGTKVELKR

0.000542 s⁻¹
0.000759 s⁻¹
